- assay_overview: Quantitative highthroughput screen to assess conditional lethalithy of NOMO1 cells grown in RPMI1640 with dialyzed fetal bovine serum (RPMI+ds) (AID 1963877); also: nearly all actives have a fitted effect of over 30% in size
- condition_details: NOMO1 in RPMI+dialyzed FBS viability, ATP luminescence, 48 h; series mostly up to 45.8 µM
Records with an inconclusive call do not appear. The source made the active and inactive calls. Calls follow the shape of the dose curve; as a rule, active = well fitted cell-killing curve with a large enough effect; inconclusive = small, poorly fitted or top-dose-only effect; inactive = flat fitted curve, though single readings scatter. Where a SMILES comes first, the peptide text is derived from it. [ ]: non-standard residue; d: D form. The star is where a group is joined. Sta = CC(C)C[C@H](N)[C@@H](O)CC(=O)O; Isovaleryl = CC(C)CC(=O)*
Give one outcome, nothing more. List: true (active), false (inactive)

Solved cases below.
Query: Recorded test call requested for CC(C)(C)c1cc(C(C)(C)C)c(NC(=O)c2c[nH]c3ccccc3c2=O)cc1O
Response: false

Query: Recorded test call requested for c1ccc([C@H]2CN3CCSC3=N2)cc1
Response: false

Query: Recorded test call requested for O=C1NC(=O)C(=Cc2ccc(-c3ccc(F)cc3)o2)S1
Response: false

***
Query: Recorded test call requested for CCOC(=O)c1c(C)n(C)c2ccc(O)cc12
Response: false

Query: Recorded test call requested for COc1nc(C)cnc1NS(=O)(=O)c1cccnc1-c1ccc(-c2nnco2)cc1
Response: false

Query: Recorded test call requested for Cn1cc(-c2ccc3ncc(Cc4ccc5ncccc5c4)n3n2)cn1
Response: false

Query: Recorded test call requested for CC(C)CC(=O)N[C@H](C(=O)N[C@H](C(=O)N[C@@H](CC(C)C)[C@@H](O)CC(=O)N[C@@H](C)C(=O)N[C@@H](CC(C)C)[C@@H](O)CC(=O)O)C(C)C)C(C)C (Isovaleryl-VV[Sta]A[Sta]-OH)
Response: false

Query: Recorded test call requested for Nc1cccc2c1CN(C1CCC(=O)NC1=O)C2=O (centres undefined)
Response: false

Query: Recorded test call requested for CN(C)c1cccc(-c2c3c(=O)n(-c4ccccc4Cl)[nH]c3cc(=O)n2C)c1
Response: true

====

- assay_overview: Quantitative highthroughput screen to assess conditional lethalithy of SEM cells grown in Human Plasma-Like Medium with dialyzed fetal bovine serum (HPLM+ds) (AID 1963882); also: nearly all actives have a fitted effect of over 35% in size
- condition_details: SEM B-ALL cells in HPLM+ds, CellTiter-Glo viability, 48 h; series mostly up to 45.8 µM
Inconclusive results are not listed. Activity calls are given as the source filed them. Calls follow the shape of the dose curve; as a rule, active = well fitted cell-killing curve with a large enough effect; inconclusive = small, poorly fitted or top-dose-only effect, or effect the other way; inactive = no such curve, though single readings can be large or run the other way.
Give one outcome, nothing more. List: True for active, False for inactive

Solved cases below.
Query: Recorded test call requested for Cc1ccc(O)c(C(CCN(C(C)C)C(C)C)c2ccccc2)c1 (stereo unspecified)
Response: False

Query: Recorded test call requested for O=c1c(-c2ccc(O)cc2)coc2cc(O)ccc12
Response: False

Query: Recorded test call requested for COc1ccc(S(=O)(=O)Nc2cccnc2Nc2ccc(O)cc2)cc1
Response: True

Query: Recorded test call requested for O=C(O)[C@H]1O[C@H](Oc2cc3oc(-c4ccccc4)cc(=O)c3c(O)c2O)[C@H](O)[C@@H](O)[C@H]1O
Response: True

Query: Recorded test call requested for NNc1nncc2ccccc12
Response: False

Query: Recorded test call requested for Cc1cnn(C)c1C(=O)Nc1cc(Nc2ccc3c(C=Cc4ccccn4)n[nH]c3c2)ccc1F
Response: True

***
Query: Recorded test call requested for C[C@H]1[C@@H](OC(=O)CCC(=O)O)O[C@@H]2O[C@@]3(C)CC[C@@H]4[C@H](C)CC[C@@H]1[C@@]24OO3
Response: True

Query: Recorded test call requested for COc1c2occc2cc2ccc(=O)oc12
Response: False

Query: Recorded test call requested for CCc1c2c(nc3ccc(O)cc13)-c1cc3c(c(=O)n1C2)COC(=O)[C@]3(O)CC
Response: True

Query: Recorded test call requested for CCCCCCNC(=O)n1cc(F)c(=O)[nH]c1=O
Response: False

Query: Recorded test call requested for C[C@@H](CN1CC(=O)NC(=O)C1)N1CC(=O)NC(=O)C1
Response: True

Query: Recorded test call requested for CC(C)=CCCC(C)=CCCC(C)=CCSc1ccccc1C(=O)O
Response: True

Query: Recorded test call requested for O=C(O)c1cc(O)c2c(c1)C(=O)c1cccc(O)c1C2=O
Response: False

Query: Recorded test call requested for CCCCCCCCCC(=O)N[C@@H](Cc1c[nH]c2ccccc12)C(=O)N[C@H](CC(N)=O)C(=O)N[C@@H](CC(=O)O)C(=O)N[C@@H]1C(=O)NCC(=O)N[C@@H](CCCN)C(=O)N[C@@H](CC(=O)O)C(=O)N[C@H](C)C(=O)N[C@@H](CC(=O)O)C(=O)NCC(=O)N[C@H](CO)C(=O)N[C@@H]([C@@H](C)CC(=O)O)C(=O)N[C@@H](CC(=O)c2ccccc2N)C(=O)O[C@@H]1C
Response: False

Query: Recorded test call requested for NC(=O)C1CCCc2c1[nH]c1ccc(Cl)cc21 (stereo unspecified)
Response: True

Query: Recorded test call requested for CC=CC(=O)N(CC)c1ccccc1C
Response: False

Query: Recorded test call requested for Cc1[nH]c2ccccc2c1CCNCc1ccc(C=CC(=O)NO)cc1
Response: True
